# Tested on: RPMI-8226 leukemia
# experiment-notes: NCI tumour cell line growth inhibition, 48 h
Quick list: TGI per entry.

# example entries with known answers
compound	obs-value
CC(=O)OC(C)(C)C1CC[C@]2(C)/C=C/C(C)C[C@@H](O)/C=C(\C)CC(O)C12 (stereo not given in full)	> 100 µM
CC1(C)CNC(=O)C2(CCCO2)CNC(C)(C)CNC(=O)C2(CCCO2)CN1 (stereo not given)	> 10 µM
O=C1C2C3CC4C5C3C1C5C1(SCCS1)C42 (stereo not given)	> 100 µM

Exam item: Given the entry COc1cc2c(c3oc(-c4ccc(O)cc4)c(O)c(=O)c13)CCC(C)(C)O2 , report its measured TGI.
Marked response: 0.787 µM

Exam item: // next record CCOc1ccc(N(C)c2ccc(/C=C/C3=[N+](C)c4ccccc4C3(C)C)cc2)cc1
Marked response: 0.602 µM

Exam item: // next record CC(=O)OCC1OC(n2c3c(c(-c4ccc(C)cc4)c(C#N)c2=S)C(=O)CC(C)(C)C3)C(OC(C)=O)C(OC(C)=O)C1OC(C)=O (stereo not given)
Marked response: > 100 µM

Exam item: // next record COc1ccc(-c2cc(N3CCN(c4ccc(Cl)cc4)CC3)c(C#N)c(=O)o2)cc1
Marked response: 87.9 µM

Exam item: // next record CCCN(CCC)C(=S)Sc1nc(C)nc(N2CCN(c3nc(C)nc(SC(=S)N(CCC)CCC)c3[N+](=O)[O-])CC2)c1[N+](=O)[O-]
Marked response: > 38.2 µM

Exam item: // next record O=C1C(Cl)C(c2cccc([N+](=O)[O-])c2)N1n1cnc2ccccc2c1=O (stereo not given)
Marked response: > 100 µM

Data provenance: PubChem BioAssay (NCI)
